As shown below, each of these compounds has a reported pIC50 value.
Molecular target: protein-protein interaction between Kras and SOS1 (biotin-tagged human Kras loaded with GDP, His-tagged human SOS1) (Homo sapiens (Human), UniProt P01116, G12D)
Assay: Protein-protein interaction inhibition between Kras and SOS1 (KrasG12D-SOS PPI) using AlphaScreen
Assay type: biochemical
Details: AlphaScreen; biotin-tagged human Kras loaded with GDP, His-tagged human SOS1; read-out: KRAS G12D-SOS PPI IC50
Numbered stars: 1 amine (or outer) side, 2 acyl side, 3 side chain; on linkers, the order of the positions; unused ones are H or OH. Bridge positions count the residues as written; N and C are the ends. Square brackets hold non-standard residues; d marks the D form. Peptide text beside a SMILES is read from it. * marks the point of attachment. hPhe(3,5-F2-4-CF3) = N[C@@H](CCc1cc(F)c(C(F)(F)F)c(F)c1)C(=O)O; hPhe(3-Cl-4-CF3) = N[C@@H](CCc1ccc(C(F)(F)F)c(Cl)c1)C(=O)O; NMePhe(4-CF3) = CN[C@@H](Cc1ccc(C(F)(F)F)cc1)C(=O)O; NEtPhe(4-Me) = CCN[C@@H](Cc1ccc(C)cc1)C(=O)O; NMedβ3hAla = C[C@H](CC(=O)[*:2])N(C)[*:1]; NMeGly(cPent) = CN[C@H](C(=O)O)C1CCCC1; Pro(4,4-F2) = O=C(O)[C@@H]1CC(F)(F)CN1; NMeCha = CN[C@@H](CC1CCCCC1)C(=O)O; Hyp = O=C(O)[C@@H]1C[C@@H](O)CN1; NMeChg = CN[C@H](C(=O)O)C1CCCCC1; NMeI = CC[C@H](C)[C@H](NC)C(=O)O; NMeD = CN[C@@H](CC(=O)O)C(=O)O; NMeL = CN[C@@H](CC(C)C)C(=O)O; NMeV = CN[C@H](C(=O)O)C(C)C; d(β3hA) = C[C@@H](N)CC(=O)O; Morpholide = C1CN(*)CCO1; NMeA = CN[C@@H](C)C(=O)O; Piperidide = C1CCN(*)CC1; dNMeA = CN[C@H](C)C(=O)O; Ac5c = NC1(C(=O)O)CCCC1; Aze = O=C(O)[C@@H]1CCN1; NEtG = CCNCC(=O)O; Sar = CNCC(=O)O
When answering, recall that pIC50 equals minus log10 of the concentration in mol/L, and write that number alone.

Example results:
# pIC50 lookup, item CCO[C@@H]1C[C@H]2C(=O)NC3(CCCC3)C(=O)N(C)[C@@H](C3CCCCC3)C(=O)N(C)[C@H](C)CC(=O)N(C)[C@@H](CC(C)C)C(=O)N[C@@H]([C@@H](C)CC)C(=O)N(C)[C@@H](C)C(=O)N3CC[C@H]3C(=O)N(C)[C@@H](Cc3ccc(C(F)(F)F)cc3)C(=O)N(C)CC(=O)N[C@@H](CCc3cc(F)c(C(F)(F)F)c(F)c3)C(=O)N2C1 [Compound 486] (cyclo([Ac5c][NMeChg][NMedβ3hAla][NMeL]I[NMeA][Aze][NMePhe(4-CF3)][Sar][hPhe(3,5-F2-4-CF3)][Hyp](Et)))
8.32

Entry CC[C@H](C)[C@@H]1NC(=O)[C@H](CC2CCCCC2)N(C)C(=O)C[C@@H](C(=O)N2CCCCC2)N(C)C(=O)[C@H](C(C)C)N(C)C(=O)C2(CCCC2)NC(=O)[C@@H]2CCCN2C(=O)[C@H](CCc2ccc(C(F)(F)F)c(Cl)c2)NC(=O)CN(C)C(=O)[C@H](CC2CCCCC2)N(C)C(=O)[C@@H]2CCN2C(=O)[C@H](C)N(C)C1=O [Compound 572] ([NMeCha]I[NMeA][Aze][NMeCha][Sar][hPhe(3-Cl-4-CF3)]P[Ac5c][NMeV][NMeD]-Piperidide; lactam N-11) has what pIC50?
7.41

Field request: pIC50 | item: CC[C@H](C)[C@@H]1NC(=O)[C@H](C)N(C)C(=O)C[C@@H](C)NC(=O)[C@H](C(C)C)N(C)C(=O)C2(CCCC2)NC(=O)[C@@H]2CCCN2C(=O)[C@H](CCc2ccc(C(F)(F)F)c(Cl)c2)NC(=O)[C@@H](C)N(C)C(=O)[C@H](CC2CCCCC2)N(C)C(=O)[C@@H]2CCN2C(=O)CN(C)C1=O [Compound 601] (cyclo([Ac5c][NMeV][d(β3hA)][NMeA]I[Sar][Aze][NMeCha][dNMeA][hPhe(3-Cl-4-CF3)]P))
7.06

Fill in: pIC50 of CC[C@H](C)[C@@H]1NC(=O)[C@H](CC(C)C)N(C)C(=O)C[C@@H](C)N(C)C(=O)[C@H](C2CCCC2)N(C)C(=O)C2(CCCC2)NC(=O)[C@@H]2CCCN2C(=O)[C@H](CCc2ccc(C(F)(F)F)c(Cl)c2)NC(=O)CN(C)C(=O)[C@H](Cc2ccc(C)cc2)N(CC)C(=O)[C@@H]2CCN2C(=O)[C@H](C)N(C)C1=O [Compound 494] (cyclo([Ac5c][NMeGly(cPent)][NMedβ3hAla][NMeL]I[NMeA][Aze][NEtPhe(4-Me)][Sar][hPhe(3-Cl-4-CF3)]P)) is ___
8.07

Item under review: CC[C@H](C)[C@@H]1NC(=O)[C@H](CC(C)C)N(C)C(=O)C[C@@H](C(=O)N2CCOCC2)N(C)C(=O)[C@H]([C@@H](C)CC)N(C)C(=O)C2(CCCC2)NC(=O)[C@@H]2CC(F)(F)CN2C(=O)[C@H](CCc2ccc(C(F)(F)F)c(Cl)c2)NC(=O)CN(C)C(=O)[C@H](Cc2ccc(C(F)(F)F)cc2)N(C)C(=O)[C@@H]2CCN2C(=O)[C@H](C)N(C)C1=O [Compound 1311] ([NMeL]I[NMeA][Aze][NMePhe(4-CF3)][Sar][hPhe(3-Cl-4-CF3)][Pro(4,4-F2)][Ac5c][NMeI][NMeD]-Morpholide; lactam N-11) . Reported pIC50?
9.29

Next compound, pIC50 to be filled in.
Name the reported pIC50 value associated with the compound CC[C@H](C)[C@@H]1NC(=O)[C@H](CC(C)C)N(C)C(=O)C[C@@H](C(=O)N2CCOCC2)N(C)C(=O)[C@H]([C@@H](C)CC)N(C)C(=O)C2(CCCC2)NC(=O)[C@@H]2CCCN2C(=O)[C@H](CCc2ccc(C(F)(F)F)c(Cl)c2)NC(=O)CN(CC)C(=O)[C@H](Cc2ccc(C(F)(F)F)cc2)N(C)C(=O)[C@@H]2CCN2C(=O)[C@H](C)N(C)C1=O [Compound 1151] ([NMeL]I[NMeA][Aze][NMePhe(4-CF3)][NEtG][hPhe(3-Cl-4-CF3)]P[Ac5c][NMeI][NMeD]-Morpholide; lactam N-11)
8.28

----------
Biological target: protein-protein interaction between Kras and SOS1 (biotin-tagged human Kras loaded with GDP, His-tagged human SOS1) (Homo sapiens (Human), UniProt P01116, G12D)
Test: Protein-protein interaction inhibition between Kras and SOS1 (KrasG12D-SOS PPI) using AlphaScreen;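 also: kras produced in E. coli, Ni-coupled donor beads and streptavidin acceptor beads, excitation 680 nm with emission detected at 520–620 nm via singlet oxygen transfer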
Assay type: biochemical
Details: AlphaScreen; biotin-tagged human Kras loaded with GDP, His-tagged human SOS1; read-out: KRAS G12D-SOS PPI IC50
pIC50: −log10 of the molar value. Bridge positions count the residues as written; N and C are the ends. Square brackets hold non-standard residues; d marks the D form. Peptide text beside a SMILES is read from it. * marks the point of attachment. hPhe(3-Cl-4-CF3) = N[C@@H](CCc1ccc(C(F)(F)F)c(Cl)c1)C(=O)O; hPhe(3-F,4-CF3) = N[C@@H](CCc1ccc(C(F)(F)F)c(F)c1)C(=O)O; 3Oxa8azabicyclo(3.2.1)octane = C1CC2COCC1N2*; NMeGly(cPent) = CN[C@H](C(=O)O)C1CCCC1; NMeCha = CN[C@@H](CC1CCCCC1)C(=O)O; NMehLeu = CN[C@@H](CCC(C)C)C(=O)O; NMeI = CC[C@H](C)[C@H](NC)C(=O)O; NMeD = CN[C@@H](CC(=O)O)C(=O)O; NMeL = CN[C@@H](CC(C)C)C(=O)O; NMePra = C#CC[C@H](NC)C(=O)O; NMeS = CN[C@@H](CO)C(=O)O; NMeA = CN[C@@H](C)C(=O)O; Piperidide = C1CCN(*)CC1; Ac5c = NC1(C(=O)O)CCCC1; Aze = O=C(O)[C@@H]1CCN1; Sar = CNCC(=O)O; Propyl = CCC*
Short version: pIC50 at least 8 is Satisfied, less is Not satisfied.

Would you please look over these solved cases?
Hi, just wondering whether C#CC[C@H]1C(=O)N(C)[C@H](C(=O)N2CCCCC2)CC(=O)N(C)[C@@H](CC(C)C)C(=O)N[C@@H]([C@@H](C)CC)C(=O)N(C)[C@@H](C)C(=O)N2CC[C@H]2C(=O)N(C)[C@@H](CC2CCCCC2)C(=O)N(C)CC(=O)N[C@@H](CCc2ccc(C(F)(F)F)c(Cl)c2)C(=O)N2CCC[C@H]2C(=O)NC2(CCCC2)C(=O)N1C [Compound 766] ([NMeL]I[NMeA][Aze][NMeCha][Sar][hPhe(3-Cl-4-CF3)]P[Ac5c][NMePra][NMeD]-Piperidide; lactam N-11) shows pIC50 of 8 or higher.
Not satisfied

Tell me whether pIC50 is at least 8 here: CC[C@H](C)[C@@H]1NC(=O)[C@H](CC(C)C)N(C)C(=O)C[C@@H](C(=O)N2CCCCC2)N(C)C(=O)[C@H](CCC(C)C)N(C)C(=O)C2(CCCC2)NC(=O)[C@@H]2CCCN2C(=O)[C@H](CCc2ccc(C(F)(F)F)c(Cl)c2)NC(=O)CN(C)C(=O)[C@H](CC2CCCCC2)N(C)C(=O)[C@@H]2CCN2C(=O)[C@H](C)N(C)C1=O [Compound 1776] ([NMeL]I[NMeA][Aze][NMeCha][Sar][hPhe(3-Cl-4-CF3)]P[Ac5c][NMehLeu][NMeD]-Piperidide; lactam N-11)
Not satisfied

Test whether the compound CCCOC[C@H]1C(=O)N(C)CC(=O)N[C@@H](CCc2ccc(C(F)(F)F)c(Cl)c2)C(=O)N2CCC[C@H]2C(=O)NC2(CCCC2)C(=O)N(C)[C@@H](C2CCCC2)C(=O)N(C)[C@H](C(=O)N2C3CCC2COC3)CC(=O)N(C)[C@@H](CCC(C)C)C(=O)N[C@@H]([C@@H](C)CC)C(=O)N(C)[C@@H](C)C(=O)N2CC[C@H]2C(=O)N1C [Compound 1154] ([NMehLeu]I[NMeA][Aze][NMeS](Propyl)[Sar][hPhe(3-Cl-4-CF3)]P[Ac5c][NMeGly(cPent)][NMeD]-{3Oxa8azabicyclo(3.2.1)octane}; lactam N-11) records pIC50 of 8 or higher.
Satisfied

More entries:
Is reported pIC50 greater than or equal to 8 here: CCCOC[C@H]1C(=O)N(C)CC(=O)N[C@@H](CCc2ccc(C(F)(F)F)c(F)c2)C(=O)N2CCC[C@H]2C(=O)NC2(CCCC2)C(=O)N(C)[C@@H]([C@@H](C)CC)C(=O)N(C)[C@H](C(=O)N(C)C)CC(=O)N(C)[C@@H](CC(C)C)C(=O)N[C@@H]([C@@H](C)CC)C(=O)N(C)[C@@H](C)C(=O)N2CC[C@H]2C(=O)N1C [Compound 316] ([NMeL]I[NMeA][Aze][NMeS](Propyl)[Sar][hPhe(3-F,4-CF3)]P[Ac5c][NMeI][NMeD]-NMe2; lactam N-11)
Satisfied
